Tested system: Tyrosine-protein phosphatase non-receptor type 1 [1-298] (Homo sapiens)
Construct: 1-298
Sequence (P18031 1-298): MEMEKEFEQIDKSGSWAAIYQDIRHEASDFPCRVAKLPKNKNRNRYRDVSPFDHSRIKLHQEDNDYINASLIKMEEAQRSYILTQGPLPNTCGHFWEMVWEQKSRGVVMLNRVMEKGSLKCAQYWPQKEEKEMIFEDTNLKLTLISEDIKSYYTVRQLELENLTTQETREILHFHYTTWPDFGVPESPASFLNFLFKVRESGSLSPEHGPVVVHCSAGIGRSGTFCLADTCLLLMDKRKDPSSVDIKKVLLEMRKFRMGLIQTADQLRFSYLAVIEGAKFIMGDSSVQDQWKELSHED
Procedure details: Phosphatase Inhibition Assay
pIC50: −log10 of the molar value.
Quantity kind: pIC50

Cc1ccc(S(=O)(=O)N[C@@H](Cc2ccc(C3CC(=O)NS3(=O)=O)cc2)c2nc3ccccc3[nH]2)cc1 (stereo not given in full) = 7.10
O=C1CC(c2ccc(C[C@H](NS(=O)(=O)c3ccccc3)c3nc4ccccc4[nH]3)cc2)S(=O)(=O)N1 (stereo not given in full) = 6.92
CC(C)c1ccc(S(=O)(=O)N[C@@H](Cc2ccc(C3CC(=O)NS3(=O)=O)cc2)c2nc3ccccc3[nH]2)cc1 (stereo not given in full) = 7.00
CC(F)(F)C(=O)N[C@@H](Cc1ccc(C2CC(=O)NS2(=O)=O)cc1)c1nc2ccccc2[nH]1 (stereo not given in full) = 6.52
O=C1CC(c2ccc(C[C@H](NS(=O)(=O)c3cc(Cl)cc(Cl)c3)c3nc4ccccc4[nH]3)cc2)S(=O)(=O)N1 (stereo not given in full) = 7.29
O=C1CC(c2ccc(C[C@H](NS(=O)(=O)c3ccccc3)c3nc4ccccc4[nH]3)cc2F)S(=O)(=O)N1 (stereo not given in full) = 7.47

[1] Cc1cc(S(=O)(=O)N[C@@H](Cc2ccc(C3CC(=O)NS3(=O)=O)cc2)c2nc3ccccc3[nH]2)ccc1-c1ccccc1 (stereo not given in full)
[2] O=C1CC(c2ccc(C[C@H](NS(=O)(=O)c3cccc(Oc4ccc(C(F)(F)F)cc4)c3)c3nc4ccccc4[nH]3)cc2)S(=O)(=O)N1 (stereo not given in full)
[3] CC(C)C(=O)N[C@@H](Cc1ccc(C2CC(=O)NS2(=O)=O)cc1)c1nc2ccccc2[nH]1 (stereo not given in full)
[4] Cc1ccc2nc(N[C@@H](Cc3ccc([C@@H]4CC(=O)NS4(=O)=O)cc3)c3nc4ccccc4[nH]3)sc2c1
[5] O=C(CCc1ccccc1)N[C@@H](Cc1ccc(C2CC(=O)NS2(=O)=O)cc1)c1nc2ccccc2[nH]1 (stereo not given in full)
Arrange these compounds by their pIC50, starting with the largest number. Provide the ranking by listing each label in its place in the requested order. 1, 2, 5, 4, 3
(1: 7.05, 2: 6.66, 5: 6.22, 4: 5.96, 3: 5.49)

[1] Cc1ccccc1S(=O)(=O)N[C@@H](Cc1ccc(C2CC(=O)NS2(=O)=O)cc1)c1nc2ccccc2[nH]1 (stereo not given in full)
[2] O=C1CC(c2ccc(C[C@H](NS(=O)(=O)c3ccc(Oc4ccncc4)cc3)c3nc4ccccc4[nH]3)cc2)S(=O)(=O)N1 (stereo not given in full)
Decide: 1 or 2 , by lowest recorded pIC50. The response must carry the label of the picked entry. 1

====

Tested system: Tyrosine-protein phosphatase non-receptor type 1 [1-298] (Homo sapiens)
Construct: 1-298
Procedure details: Phosphatase Inhibition Assay
Test conditions: pH 7; 22 °C
pIC50: −log10 of the molar value. Non-standard residues stand in square brackets, D forms with d. Residues, ends and D or L forms follow the SMILES beside them. F2Pmp = N[C@@H](Cc1ccc(C(F)(F)P(=O)(O)O)cc1)C(=O)O
Quantity kind: pIC50

O=C1C[C@@H](c2ccc(C[C@H](Nc3nc4c(F)cc(Cl)cc4s3)c3nc4ccccc4[nH]3)cc2)S(=O)(=O)N1 = 5.74
NC(=O)[C@H](Cc1ccc(C(F)(F)P(=O)(O)O)cc1)NC(=O)[C@H](Cc1ccccc1)NC(=O)Cc1ccc(C(F)(F)P(=O)(O)O)cc1 = 8.77
CC(=O)N[C@@H](Cc1ccccc1)C(=O)N[C@@H](Cc1ccc(C(F)(F)P(=O)(O)O)cc1)C(N)=O [DFMP 5] (Ac-Phe-[F2Pmp]-NH2) = 5.77
NC(=O)[C@H](Cc1ccc(C(F)(F)P(=O)(O)O)cc1)NC(=O)[C@@H](NC(=O)Cc1ccc(C(F)(F)P(=O)(O)O)cc1)C(=O)O = 9.40
NC(=O)[C@H](Cc1ccc(C(F)(F)P(=O)(O)O)cc1)NC(=O)CNC(=O)Cc1ccc(C(F)(F)P(=O)(O)O)cc1 = 7.38
O=C(Cc1ccc(C(F)(F)P(=O)(O)O)cc1)N[C@@H](Cc1ccccc1)C(=O)NCCc1ccc(C(F)(F)P(=O)(O)O)cc1 = 7.34
CN1CCOc2cc(S(=O)(=O)N[C@@H](Cc3ccc([C@@H]4CC(=O)NS4(=O)=O)cc3)c3nc4ccccc4[nH]3)ccc21 = 7.23

[a] NC(=O)[C@H](Cc1ccccc1)NC(=O)[C@@H](NC(=O)Cc1ccc(C(F)(F)P(=O)(O)O)cc1)C(=O)O
[b] O=C1C[C@@H](c2ccc(C[C@H](NC(=O)C(F)(F)F)c3nc4ccc(C(F)(F)F)cc4[nH]3)cc2)S(=O)(=O)N1
Please indicate which entry, a or b , has the lower recorded pIC50 value. Write down the label attached to your selection. a
